assay overview: Inhibition of [125I]-I binding to ATP-inhibited Potassium channel receptor of Rat brain homogenate
measured quantity: Ki (nM)

molecule | u | observed
COc1ccc(Cl)cc1C(=O)NCCc1ccc(S(=O)(=O)NC(=O)NC2CCCCC2)cc1 [GLYBURIDE] | nM | 0.608

I: COc1ccc(I)cc1C(=O)NCCc1ccc(S(=O)(=O)NC(=O)NC2CCCCC2)cc1
II: Cc1cnc(C(=O)NCCc2ccc(S(=O)(=O)NC(=O)NC3CCCCC3)cc2)cn1 [GLIPIZIDE]
query: Between I and II , whose measured Ki reads higher? The response must carry the label of the picked entry.
result: II
